These measurements were taken from PubChem BioAssay (NCI).

Assign growth to each entry below.
Test system: HCT-15 colon
Run description: NCI-60 one-dose screen, 48 h (100 = growth as untreated, 0 = no growth, -100 = all killed)
Applied conditions: 10 µM unless noted
This is part of a sample that, as a whole, favours compounds with a hit. Of some 83,000 tested, about 20% had one in any assay.
Answer format: numeric, % implied, no suffix.

For HCT-15 colon, provide growth of "Cn1nc(C(C)(C)C)cc1NC(=O)Cc1ccc(/C=C2\C(=O)Nc3ccccc32)cc1" please.
48.4

Input "Nc1nc(-c2ccccc2Br)nn1-c1nc2ccccc2s1"
97.2

Input "CCOc1cccc(/C=N\Nc2nc(=O)cc(C(=O)OC)s2)c1O"
45.6

Input CCCCC(O)(c1ccc(Cl)cc1)C(CN1CCOCC1)c1ccc(Cl)cc1 (configuration not stated)
34.9

Input "N#C/C(=C1\SC(=O)CN1c1ccccc1)c1nc2ccccc2s1"
95.8

Input "O=C(Nc1ccc(N2CCNCC2)cc1)c1[nH]ncc1Nc1cc(Oc2ccccc2)ncn1"
-35.9

Input COc1nc2c(c(=O)n1C)N=C1c3ccccc3C(=O)C1C(c1ccccc1)N2 (configuration not stated)
90.5

Input "O=c1oc2ccc(F)cc2c(=O)n1-c1ccc(Cl)cc1F"
7.49

Input "COc1ccc(C)c2sc(N(Cc3cccnc3)C(=O)c3ccc(C#N)cc3)nc12"
17.5

Input "Nc1n[nH]c2ccc([C@@H]3Nc4ccc5[nH]ncc5c4[C@H]4[C@H]5CCC(C5)[C@H]43)cc12"
16.5

Input "COc1cc(NC(=O)CCSc2nc3ccccc3c(=O)n2CCc2ccccn2)cc(OC)c1OC"
96.4

Input "CN(C)CCNc1cc(-c2ccccc2)nc2ccccc12"
6.92

Input "CC(=O)O[C@@H]1/C=C/C(=O)N[C@@H](C)CCC/C=C/[C@@H]2CCC[C@H]21"
114

Input "CC(=O)Nc1nc2c(s1)CCc1c-2cn(S(=O)(=O)c2ccccc2)c1-c1ccccc1"
51.9

Input "O=c1cc(NC2CCN(CCCc3ccccc3)CC2)c2cc(Cl)ccc2o1"
14.1

Input "O=C(Nc1ccc(I)cc1F)c1cc(Cl)ccc1O"
2.58

Input "O=S1(=O)CCN(Cc2ccccc2)CC1"
92.8

Input "CNCCNc1nc2ccccc2c2c(=O)c3cc(F)ccc3sc12"
13.6

Input "O=C(Nc1ccc(F)cc1F)c1cc(Cl)ccc1O"
13.9

Input "COc1cc(CNC(=O)Cc2ccccc2)ccc1OCc1cn(-c2ccc(F)cc2)nn1"
106

Input "O=c1oc2ccc(F)cc2c(=O)n1-c1ccc(I)cc1F"
5.2

Input "COc1ccc(OC)c(N(CCN2C(=O)c3ccccc3C2=O)C(=O)CCl)c1"
80.3
